Tested on: MV4-11
protocol: Anticancer activity against human MV4-11 cells assessed as cell growth inhibition for 6 hrs followed by compound washout measured after 24 hrs by Annexin V/Propidium iodide staining based flow cytometric analysis
Assay type: functional
property label: pEC50
Bear in mind: pEC50 is minus log10 of a mol/L concentration; give just that figure.

These solved cases illustrate the format of a correct answer.
compound="O=C(CNc1cccc2c1C(=O)N(C1CCC(=O)NC1=O)C2=O)NCCCCCCCCCCC(=O)N1CCC(NC(=O)c2n[nH]cc2NC(=O)c2c(Cl)cccc2Cl)CC1 (stereo not drawn)" measured_target=MV4-11 reported_value=6.70
compound="O=C(COc1cccc2c1C(=O)N(C1CCC(=O)NC1=O)C2=O)NCCCCCCCCCCC(=O)N1CCC(NC(=O)c2n[nH]cc2NC(=O)c2c(Cl)cccc2Cl)CC1 (stereo not drawn)" measured_target=MV4-11 reported_value=6.40

Turning now to a further compound:
Given O=C(NC1CCNCC1)c1n[nH]cc1NC(=O)c1c(Cl)cccc1Cl , state its recorded pEC50. 5.96
